test: chemical genetic growth profiling, strain panel (AID 1159580);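 note: tested at 20 µM; growth read once vehicle control cultures reached saturation at 30 °C; 1 = growth at the plate median or of vehicle wells; lower values mean less growth of the strain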; conditions: S. cerevisiae deletion strains, growth OD, locus YOR184W, strain ser1, active compounds read low
In all, about 5,500 compounds went through this assay and about 2,000 (36%) were called active. Roughly 18% stayed inconclusive and do not appear here. The list shows a part of the results.
metric name: normalized growth
Give bare numbers.

// worked examples, normalized growth included
structure as smiles	normalized growth
O=C1c2ccc(O)c(O)c2C(=O)c2c(O)ccc(O)c21	0.995
Cc1cccc(N(C)C(=S)Oc2ccc3ccccc3c2)c1	0.897
CCOc1ccc(Cc2nccc3cc(OCC)c(OCC)cc23)cc1OCC	0.899
O=C(O)c1cc2cc(Cl)ccc2[nH]1	0.967
Cn1c(=O)[nH]c(=O)c2[nH]cnc21	0.966

Now let's try a different one.
## Input Suppose we examine the molecule `CCCCCN=C(N)N/N=C\c1c[nH]c2ccc(OC)cc12` ; what normalized growth value has been reported?
## Output 1.02

* * *

assay: chemical genetic growth profiling, strain panel (AID 1159580);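 note: tested at 20 µM; growth read once vehicle control cultures reached saturation at 30 °C; 1 = growth at the plate median or of vehicle wells; lower values mean less growth of the strain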; conditions: S. cerevisiae deletion strains, growth OD, locus YKL190W, strain CNB1, active compounds read low
Out of some 5,500 compounds screened, about 2,000 (36%) were called active. Inconclusive results (about 18%) are left out. This is one part of the list.
Provide the reported normalized growth of each item.
Give bare numbers.

// worked examples, normalized growth included
compound	normalized growth
Cc1ccc(C(=O)NNC(=O)c2ccncc2)c(C)c1	1.01
CC(C(=O)O)c1ccc(N2Cc3ccccc3C2=O)cc1 (stereo unspecified)	1.01
FC(F)(F)c1cc(NC2=NCCN=C(Nc3cc(C(F)(F)F)cc(C(F)(F)F)c3)SS2)cc(C(F)(F)F)c1	1.01
N#CCCNc1cc(C(F)(F)F)cc(C(F)(F)F)c1	0.981
Cc1cc(C)nc(NS(=O)(=O)c2ccc(N)cc2)n1	1

Now let's try a different one.
## Input Suppose we examine the compound `CCOc1ccc(Cc2nccc3cc(OCC)c(OCC)cc23)cc1OCC` ; what normalized growth value has been reported?
## Output 0.98

* * *

experiment: chemical genetic growth profiling, strain panel (AID 1159580);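 note: tested at 20 µM; growth read once vehicle control cultures reached saturation at 30 °C; 1 = growth at the plate median or of vehicle wells; lower values mean less growth of the strain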; settings: S. cerevisiae deletion strains, growth OD, locus YGL227W, strain vid30, active compounds read low
The whole screen tested about 5,500 compounds, of which about 2,000 (36%) were called active. Another 18% or so got no clear call; they are omitted. The list shows a part of the results.
Provide the reported normalized growth of each item.
Numbers only.

// worked examples, normalized growth included
compound	recorded number
CCCCC(=O)O[C@H]1CCC2C3CCc4cc(O)ccc4C3CC[C@@]21C (stereo not given in full)	1.01
O=C1OC(=O)C2C3CCC(O3)C12 (stereo not given)	0.996

For every item below, please supply its normalized growth.
1. C[C@]12CCC3c4ccc(O)cc4CCC3C1CC[C@@H]2OC(=O)CCC1CCCC1 (stereo not given in full)
2. CC(=O)O[C@H]1CC2CCC3C(CC[C@@]4(C)C3C[C@H]([N+]3(C)CCCCC3)[C@@H]4OC(C)=O)[C@@]2(C)C[C@@H]1[N+]1(C)CCCCC1 (stereo not given in full)
3. CC(=O)O[C@@H]1CC2C(C)(C)[C@H](O)C[C@H](O)[C@]2(C)C2CC[C@@]3(C)C(=CC(=O)O[C@H]3c3ccoc3)[C@@]21C (stereo not given in full)

## Output
[1.03, 1.01, 0.986]
